This collection of values is drawn from paper PMC8922279.

Readings of bioavailability for the listed compounds
- Experiment description: in vivo
- Condition notes: female, CD-1, mouse, po, 25 mg/kg
Use % as the unit, but write only the number.

Known results for compounds:
>  <Compound>
O=C(CCCC(NC(=O)c1ccc(Cl)cc1Cl)C(=O)O)N[C@@H]1C(=O)N2C(C(=O)O)=C(CSc3cccc[n+]3[O-])CS[C@H]12 (some centres unmarked)

>  <bioavailability / %>
0.11

$$$$
>  <Compound>
CN(C)C(=S)SCC1=C(C(=O)O)N2C(=O)[C@@H](NC(=O)Cc3cccs3)[C@H]2SC1

>  <bioavailability / %>
1.33

$$$$
>  <Compound>
O=C(O)C1=C(CSc2cccc[n+]2[O-])CS[C@@H]2[C@H](NC(=O)/C(=N\Oc3ccccc3)c3ccco3)C(=O)N12

>  <bioavailability / %>
0.11

$$$$
>  <Compound>
O=C(Cc1cccs1)N[C@@H]1C(=O)N2C(C(=O)O)=C(CSc3cccc[n+]3[O-])CS[C@H]12

>  <bioavailability / %>
0.19

$$$$

Now let's try a different one.
Q) Which value of bioavailability has been reported for O=C(Cc1ccc(C2=NCCN2)cc1)N[C@@H]1C(=O)N2C(C(=O)O)=C(CSc3nncs3)CS[C@H]12 in the records?
A) 0.3

###

- Experiment description: in vitro
- Condition notes: SD, rat, plasma, Plasma stability % Remaining
Mark satisfied for remaining at 2 h, 2 μM under 80%, not satisfied if at or over.

Q) Dear reviewer, please state whether O=C(O)C1=C(CSc2cccc[n+]2[O-])CS[C@@H]2[C@H](NC(=O)/C(=N\Oc3ccccc3)c3ccco3)C(=O)N12 [TBBL-0000005] has remaining at 2 h, 2 μM strictly beneath 80%.
A) satisfied

Q) Dear reviewer, please state whether CN(C)C(=S)SCC1=C(C(=O)O)N2C(=O)[C@@H](NC(=O)Cc3cccs3)[C@H]2SC1 [TBBL-0000009] has remaining at 2 h, 2 μM strictly beneath 80%.
A) not satisfied

Q) Dear reviewer, please state whether O=C(Cc1ccc(C2=NCCN2)cc1)N[C@@H]1C(=O)N2C(C(=O)O)=C(CSc3nncs3)CS[C@H]12 [TBBL-0000316] has remaining at 2 h, 2 μM strictly beneath 80%.
A) not satisfied

###

- Experiment description: in vivo
- Condition notes: DHP-1 knockout, mouse, sc, 300 mg/kg
Mark class 1 for AUC(0-t) under 30000 ng·h/mL, class 0 if at or over.

>  <Compound>
O=C(Cc1ccc(C2=NCCN2)cc1)N[C@@H]1C(=O)N2C(C(=O)O)=C(CSc3nncs3)CS[C@H]12 [TBBL-0000316]

>  <Class assignment>
class 0

$$$$

Q) Dear reviewer, please state whether O=C(CCCC(NC(=O)c1ccc(Cl)cc1Cl)C(=O)O)N[C@@H]1C(=O)N2C(C(=O)O)=C(CSc3cccc[n+]3[O-])CS[C@H]12 (some centres unmarked) [TBBL-0000552] has AUC(0-t) strictly beneath 30000 ng·h/mL.
A) class 0

Q) Dear reviewer, please state whether CN(C)C(=S)SCC1=C(C(=O)O)N2C(=O)[C@@H](NC(=O)Cc3cccs3)[C@H]2SC1 [TBBL-0000009] has AUC(0-t) strictly beneath 30000 ng·h/mL.
A) class 1

Q) Dear reviewer, please state whether O=C(Cc1cccs1)N[C@@H]1C(=O)N2C(C(=O)O)=C(CSc3cccc[n+]3[O-])CS[C@H]12 [TBBL-0000001] has AUC(0-t) strictly beneath 30000 ng·h/mL.
A) class 0
